- system_tested: Polyunsaturated fatty acid lipoxygenase ALOX15 (Homo sapiens)
- Sequence (P16050 whole entry): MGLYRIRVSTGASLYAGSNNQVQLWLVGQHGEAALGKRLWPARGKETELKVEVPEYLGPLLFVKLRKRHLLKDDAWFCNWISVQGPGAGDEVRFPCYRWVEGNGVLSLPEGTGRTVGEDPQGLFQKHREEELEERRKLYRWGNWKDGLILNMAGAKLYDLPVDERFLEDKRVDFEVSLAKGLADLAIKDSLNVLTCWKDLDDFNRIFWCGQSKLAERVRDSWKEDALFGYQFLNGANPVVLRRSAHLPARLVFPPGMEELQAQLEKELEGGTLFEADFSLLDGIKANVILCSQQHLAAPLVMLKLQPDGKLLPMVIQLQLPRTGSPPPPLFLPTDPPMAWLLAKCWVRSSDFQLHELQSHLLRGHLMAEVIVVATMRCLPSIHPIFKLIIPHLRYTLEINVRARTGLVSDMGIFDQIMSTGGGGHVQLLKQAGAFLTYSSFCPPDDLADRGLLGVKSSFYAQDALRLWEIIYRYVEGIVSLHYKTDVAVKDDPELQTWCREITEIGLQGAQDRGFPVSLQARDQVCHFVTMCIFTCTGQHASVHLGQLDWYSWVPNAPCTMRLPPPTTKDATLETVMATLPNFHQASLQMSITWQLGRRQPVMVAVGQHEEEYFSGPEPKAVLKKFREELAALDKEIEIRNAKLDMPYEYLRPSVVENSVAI
readout_label: IC50 (nM)

Previously resolved entries follow.
structure_string: O=C(Nc1ccccc1Cl)c1cn[nH]n1
system_tested: Polyunsaturated fatty acid lipoxygenase ALOX15 (Homo sapiens)
IC50 [nM]: 392
//
structure_string: O=C(Nc1ccc(F)cn1)c1cn[nH]n1
system_tested: Polyunsaturated fatty acid lipoxygenase ALOX15 (Homo sapiens)
IC50 [nM]: 3110
//
structure_string: O=C(Nc1ccc(F)cc1Cl)c1n[nH]cc1[N+](=O)[O-]
system_tested: Polyunsaturated fatty acid lipoxygenase ALOX15 (Homo sapiens)
IC50 [nM]: 616

a. O=C(Nc1ccc(F)cc1Cl)c1cc([N+](=O)[O-])[nH]n1
b. c1ccc2oc(-c3cc[nH]n3)nc2c1
Asked: Between a and b , which one shows the smaller IC50 number? Bench note: the answer is the label of the chosen record.
Given back: b
(b: 638 nM, a: 3290 nM)

----------
- system_tested: CYP2E1 (Homo sapiens)
- Sequence (P05181 whole entry): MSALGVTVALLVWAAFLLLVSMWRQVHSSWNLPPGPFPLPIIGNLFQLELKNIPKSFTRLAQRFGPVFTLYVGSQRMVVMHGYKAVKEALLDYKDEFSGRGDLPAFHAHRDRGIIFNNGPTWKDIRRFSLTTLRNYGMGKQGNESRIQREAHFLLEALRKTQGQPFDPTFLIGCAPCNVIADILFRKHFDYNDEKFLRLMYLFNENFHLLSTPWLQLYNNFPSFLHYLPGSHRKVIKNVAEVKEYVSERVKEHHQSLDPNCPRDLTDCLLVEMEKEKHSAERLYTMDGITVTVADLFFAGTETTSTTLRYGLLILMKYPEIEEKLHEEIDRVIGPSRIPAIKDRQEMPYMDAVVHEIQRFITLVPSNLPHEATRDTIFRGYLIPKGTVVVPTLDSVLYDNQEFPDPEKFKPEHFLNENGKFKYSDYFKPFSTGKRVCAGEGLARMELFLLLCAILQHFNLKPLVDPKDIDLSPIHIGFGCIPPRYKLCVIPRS
- test_summary: Inhibition of human CYP2E1 at 10 uM
- Type: ADME
readout_label: inhibition at 10 µM (%)
Numbers only; they are read as %.

Asked: What inhibition at 10 µM value was documented for this molecule, `O=C(Nc1ccc(Cl)cc1Cl)c1cn[nH]n1` ?
Given back: 10

----------
- test_summary: Aqueous solubility in pH 7.4 buffer
- Assay type: physicochemical
readout_label: solubility (µg/mL)

structure_string: O=C(Nc1ccc(F)cn1)c1cc[nH]n1
unit_tag: µg/mL
assay_value: 3.4

P. O=C(Nc1ccc(Cl)cc1Cl)c1cn[nH]n1
Q. O=C(Nc1ccc2ccccc2n1)c1cc[nH]n1
Asked: Given the listed records, identify the one among P and Q with higher solubility. Respond using the label that marks the chosen record.
Given back: P

----------
- system_tested: Cytochrome P450 1A2 (Homo sapiens, UniProt P05177)
- Sequence (P05177 whole entry): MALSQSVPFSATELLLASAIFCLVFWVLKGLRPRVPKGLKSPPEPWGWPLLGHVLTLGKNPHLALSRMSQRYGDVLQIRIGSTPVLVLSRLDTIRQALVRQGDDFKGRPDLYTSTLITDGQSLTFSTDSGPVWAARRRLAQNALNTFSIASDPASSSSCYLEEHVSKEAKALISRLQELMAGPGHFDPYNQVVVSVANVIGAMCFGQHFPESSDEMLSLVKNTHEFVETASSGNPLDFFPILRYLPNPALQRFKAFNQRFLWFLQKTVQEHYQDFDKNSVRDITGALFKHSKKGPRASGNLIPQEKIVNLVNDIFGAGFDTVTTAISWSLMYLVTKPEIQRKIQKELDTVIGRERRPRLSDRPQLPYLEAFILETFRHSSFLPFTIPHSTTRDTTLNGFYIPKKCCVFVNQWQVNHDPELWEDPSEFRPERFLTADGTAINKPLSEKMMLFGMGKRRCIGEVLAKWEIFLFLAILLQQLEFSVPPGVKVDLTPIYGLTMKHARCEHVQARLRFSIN
readout_label: pIC50
Scale note: pIC50 = -log10(concentration in M).

Asked: Fill in the recorded pIC50 for this compound, with Cytochrome P450 1A2 (Homo sapiens, UniProt P05177) as test system: `O=C(Nc1ccc(Cl)cc1Cl)c1cn[nH]n1`
Given back: 4.67

----------
- system_tested: Polyunsaturated fatty acid lipoxygenase ALOX15 (Homo sapiens)
readout_label: IC50 (nM)

Some compounds with recorded IC50:
structure_string: O=C(Nc1ccc(F)cc1)c1cn[nH]n1
IC50 [nM]: 947

structure_string: Cc1c(C(=O)Nc2ccc(F)cc2Cl)n[nH]c1[Si](C)(C)C
IC50 [nM]: 672

structure_string: O=C(Nc1ccccc1Cl)c1cn[nH]n1
IC50 [nM]: 6980

structure_string: O=C(Nc1ccc2ccccc2n1)c1cc[nH]n1
IC50 [nM]: 180

A. Clc1ccc2nc(-c3n[nH]c(Cl)c3Cl)oc2c1
B. c1ccc2oc(-c3cc[nH]n3)nc2c1
Asked: Quick one: lower IC50, A or B ? Identify your selection by its label.
Given back: A
(A: 2 nM, B: 3270 nM)

1. Nc1cc(C(=O)Nc2ccc(F)cc2Cl)n[nH]1
2. O=C(Nc1ccc(F)cn1)c1cn[nH]n1
3. O=C(Nc1ccccn1)c1cc[nH]n1
Asked: Arrange items by their IC50 values in increasing order. Returns: the labels listed in the requested order.
Given back: 3, 2, 1
(3: 1210 nM, 2: 3970 nM, 1: 5980 nM)
